Catalogue of IC50 (nM), inhibition of CGRP-induced (5 nM) cAMP production in SK-N-MC cells values
Molecular target: CGRP receptor on SK-N-MC cells (UniProt O60894 27-148; Q16602 23-461, limits assumed)
Sequence (O60894 27-148 limits assumed, chain 1 of 2): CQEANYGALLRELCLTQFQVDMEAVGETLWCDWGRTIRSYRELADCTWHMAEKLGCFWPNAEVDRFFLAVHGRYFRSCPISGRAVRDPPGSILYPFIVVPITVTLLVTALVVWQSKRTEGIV
Sequence (Q16602 23-461 limits assumed, chain 2 of 2): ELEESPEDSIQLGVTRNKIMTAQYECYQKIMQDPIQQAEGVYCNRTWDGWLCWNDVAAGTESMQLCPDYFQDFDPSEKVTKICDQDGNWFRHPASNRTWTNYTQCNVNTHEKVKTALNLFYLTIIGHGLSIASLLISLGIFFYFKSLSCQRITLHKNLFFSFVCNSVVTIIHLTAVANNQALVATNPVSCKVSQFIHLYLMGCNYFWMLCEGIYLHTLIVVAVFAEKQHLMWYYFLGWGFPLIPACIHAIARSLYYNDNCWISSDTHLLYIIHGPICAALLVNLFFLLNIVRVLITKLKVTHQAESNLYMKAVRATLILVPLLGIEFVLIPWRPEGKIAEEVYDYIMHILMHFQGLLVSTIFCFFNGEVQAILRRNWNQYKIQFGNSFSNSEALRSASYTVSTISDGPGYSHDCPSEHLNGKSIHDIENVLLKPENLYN
Assay: cell-based or functional assay

- A10-268-42 (VHH, Llama VHH with C-terminal 6xHis, expressed in 293 cells; also called B828603; 42wt) VHH: QVQLVESGGGLVQAGDSLRLSCAASGRTFSGYVMGWFRQAPGKEREFVAALRWSSSNTNYAASVKGRFTISRDYAKDTVYLQMNSLKPDDTAVYYCAAKRDRPYGSTWTPVAADYDTWGQGTQVTVSS: 39.7 nM

Could you now consider this next binder?
The binder identified as A10-268-76 (VHH, Llama VHH with C-terminal 6xHis, expressed in 293 cells; also called B828604) VHH: QVQLVESGGGLVPAGGSLNLSCAASGRTFSTYAMGWFRQAPGKEREFVATINWDNGRTYYADSVKGRFTISRDNAKNMVYLQMNSLKPEDTAVYYCAADKTAIFRTSVVPDDYDYWGQGTQVTVSS registered its IC50 (nM), inhibition of CGRP-induced (5 nM) cAMP production in SK-N-MC cells at > 10000 nM
